# System: PXR homodimer (NR concentration 270 nM)
# assay.method.text: PBM binding z-score (relative to random genomic background probes); higher = stronger binding; sequences stand for … in GC…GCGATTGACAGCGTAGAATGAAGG
property.label: PBM binding z-score
Answer with the value's number alone.

These recorded examples may help you get a feel for the data.
>  <biosequence>
AGAATGAGGTTATACGTAGATCAGTGAAGAAAGT

>  <quantitative.result>
0.463

$$$$
>  <biosequence>
TCGAGTAGCTTACCAATGGGGCATTCAGCTTTCT

>  <quantitative.result>
-1.19

$$$$
>  <biosequence>
ATCTCTAGGTAAGGTTCAGTGAAAGATCGATAGA

>  <quantitative.result>
0.974

$$$$
>  <biosequence>
ATCTCTAGGTAAAGTTCACTGAAAGATCGATAGA

>  <quantitative.result>
2.92

$$$$
>  <biosequence>
TCGAGTTGGTTAGTCGGGGCATTCAGCCAACATA

>  <quantitative.result>
0.163

$$$$
>  <biosequence>
TGTCAAAGTTCGAAGGTAACGTAAGTATCCACAC

>  <quantitative.result>
0.292

$$$$
>  <biosequence>
TCTTGTAGATGAAAGGTTAAGAAAGCCGAAGCCT

>  <quantitative.result>
0.117

$$$$
>  <biosequence>
AGTCAAAGTTCACTAGGTAACCTAAGATTCAGCT

>  <quantitative.result>
4.07

$$$$

Query block: Using the record for GCTTGTAGATCATGGTTAAGAAAGACTAAGCTAA , state its measured PBM binding z-score.
Result block: -0.29

###

Below, each entry is listed alongside its reported PBM binding z-score.
# Test system: PXR homodimer (NR concentration 270 nM)
# assay.method.text: PBM binding z-score (relative to random genomic background probes); higher = stronger binding; sequences stand for … in GC…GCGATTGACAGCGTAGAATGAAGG
Answer with the value's number alone.

These recorded examples may help you get a feel for the data.
>  <biosequence>
CATACTAGGTCACAGAGGTCAAAGTCCGTGCGTA

>  <PBM binding z-score>
11.3

$$$$
>  <biosequence>
CGAACTAGGTCCGAACAGGACAGTGAAGGATGAT

>  <PBM binding z-score>
-0.581

$$$$
>  <biosequence>
TAGCCTAGGACATGGGCCAGTATACCACGCGAAC

>  <PBM binding z-score>
-0.477

$$$$
>  <biosequence>
TGTCAAAGTTCAAAGGCAACGTAAGTATCCACAC

>  <PBM binding z-score>
2.97

$$$$
>  <biosequence>
TCTGCTAGGTTAGTTGGTCAGCTAACGAGCTGCC

>  <PBM binding z-score>
-1.1

$$$$

Now for another entry.
Query block: System PXR homodimer (NR concentration 270 nM). Read-out PBM binding z-score. Item AGAATGAGGTTATACGTAGATCAGGGGAGAAAGT . Report value.
Result block: 0.423

###

# Tested on: LXRa:RXRa (NR concentration 270 nM, RXRa partner concentration 90 nM)
# assay.method.text: PBM binding z-score (relative to random genomic background probes); higher = stronger binding; sequences stand for … in GC…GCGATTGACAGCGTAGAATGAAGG
property.label: PBM binding z-score
Answer with the value's number alone.

These recorded examples may help you get a feel for the data.
>  <biosequence>
GCGACTGGGGCATCAGCAGGTTACGATAACTTAA

>  <PBM binding z-score>
-0.214

$$$$
>  <biosequence>
ATCTCTAGGTAAGAAGTTCAGTGAAAGAGAGGAC

>  <PBM binding z-score>
0.566

$$$$
>  <biosequence>
TCTAGTAGATCAGCAGGTTAAGAAAGCTGGCCAA

>  <PBM binding z-score>
0.127

$$$$

Query block: Using the record for TCATATAGGTAAACGGTGAAAGTCGGTGTGGTAA , state its measured PBM binding z-score.
Result block: 0.878

Query block: Using the record for CGTCTAAGGTCAGAGAGGTCAGTGAATGCCGAGT , state its measured PBM binding z-score.
Result block: 5.75

Query block: Using the record for CGAACTAGGTCATCCATGACAGTGAATACATTGA , state its measured PBM binding z-score.
Result block: 2.2

Query block: Using the record for CCTACTGCGCCAAGGTCATTGATCAGTCAAAGCA , state its measured PBM binding z-score.
Result block: 3.48

Query block: Using the record for TCTTGTAGGTCAAGCAGGTTAAGAAAGCCTGAGT , state its measured PBM binding z-score.
Result block: 4.34

Query block: Using the record for CCTTACGGGTCACTGACAGGTTATGGCATTTGGA , state its measured PBM binding z-score.
Result block: 4.1

Query block: Using the record for ATCTCTAGGTAACGAGTTCAGTGAAAGAGAGGAC , state its measured PBM binding z-score.
Result block: 0.764

Query block: Using the record for TTACCAAGGTGAGCTGAGATCGTTGATCCAACTC , state its measured PBM binding z-score.
Result block: -0.689

Query block: Using the record for GTACCAAGATGAATAGGTCGTTGATGAGTAGGCG , state its measured PBM binding z-score.
Result block: -0.137

###

# System: PPARg:RXRa IVT, anti-PPARg (NR concentration 270 nM, RXRa partner concentration 90 nM)
# assay.method.text: PBM binding z-score (relative to random genomic background probes); higher = stronger binding; sequences stand for … in GC…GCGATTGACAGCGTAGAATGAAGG
Label scheme for PBM binding z-score: lower than 1 is F, 1 and above is T.

>  <biosequence>
CCTTACGGGTCACTCCAGGTTACAGCATCGGAGT

>  <target.of.assay>
PPARg:RXRa IVT, anti-PPARg (NR concentration 270 nM, RXRa partner concentration 90 nM)

>  <class.label>
T

$$$$
>  <biosequence>
GGAACGAGGGCATTCGAGTTGGTAGCATGGCGAT

>  <target.of.assay>
PPARg:RXRa IVT, anti-PPARg (NR concentration 270 nM, RXRa partner concentration 90 nM)

>  <class.label>
T

$$$$
>  <biosequence>
AAATGTAGGTTATCGGGTCATTCAGTTTGCGCAT

>  <target.of.assay>
PPARg:RXRa IVT, anti-PPARg (NR concentration 270 nM, RXRa partner concentration 90 nM)

>  <class.label>
T

$$$$
>  <biosequence>
GCGACTGGGGCAAAGCCGGTTACCATAAGGTTGG

>  <target.of.assay>
PPARg:RXRa IVT, anti-PPARg (NR concentration 270 nM, RXRa partner concentration 90 nM)

>  <class.label>
T

$$$$

Query block: Please indicate if the recorded PBM binding z-score for TCTATTAGTCGAAGGGCAACCGACGAGTCCGTTT meets or exceeds 1.
Result block: F

Query block: Please indicate if the recorded PBM binding z-score for CGAACTAGGTCGGAACAGGACAGTGAAGGATGAT meets or exceeds 1.
Result block: T

Query block: Please indicate if the recorded PBM binding z-score for AGAATGAGGTAATACGTAGATCAGGGAAGAAAGT meets or exceeds 1.
Result block: F

Query block: Please indicate if the recorded PBM binding z-score for CAAACTAGGTCAAGGTCATAGTCGGTTTGTGCCA meets or exceeds 1.
Result block: T

Query block: Please indicate if the recorded PBM binding z-score for ACTATTAGTTGACTTAGGGAAACCGATACGACGC meets or exceeds 1.
Result block: F

###

# System: PPARg DBDmut IVT, anti-PPARg (DBD mutation: PPARg1 K132A/R137A, NR concentration 270 nM)
# assay.method.text: PBM binding z-score (relative to random genomic background probes); higher = stronger binding; sequences stand for … in GC…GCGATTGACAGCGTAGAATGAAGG
Each record's PBM binding z-score is compared with Low = under -0.7, Medium = from -0.7 up to 0.9, High = 0.9 and over to give its class.

>  <biosequence>
CGAACTAGGTGAGAACAGGACAGTGAAGGATGAT

>  <class.label>
Medium

$$$$
>  <biosequence>
GCTTGTAGATTAAGGTTAAGAAAGACTAAGCTAA

>  <class.label>
Medium

$$$$
>  <biosequence>
TCTATTAGTTGACTAGGGCAACCGAAACAGCGGA

>  <class.label>
High

$$$$
>  <biosequence>
ATCTCTAGGTAAAGATACTTCAGTGAATGCAAAT

>  <class.label>
High

$$$$
>  <biosequence>
CCTTACGGGTCACTCCAGGTTGTAGCATCGGAGT

>  <class.label>
Medium

$$$$

Query block: Consider TCTAGCAGGCCCGAGGGTCACTCAAGAGGTACGG . To which PBM binding z-score class does it belong?
Result block: Low

Query block: Consider TCTGCTAGGTCAATGATGGTCAGCTAATCTGCTA . To which PBM binding z-score class does it belong?
Result block: Medium

Query block: Consider AGAATGAGGTTATATGTAGATCAGGGAAGAAAGT . To which PBM binding z-score class does it belong?
Result block: High

Query block: Consider TAGCCTAGGTCCTGCGGGCCAGTATAGTGTCGGC . To which PBM binding z-score class does it belong?
Result block: Low

Query block: Consider TCTCGGAGGACACGAAGGGCAGAGCTTTCCAGAG . To which PBM binding z-score class does it belong?
Result block: Low
